- system.under.test: T1, Furin (recombinant, truncated) (mouse), P23188
- T1 chain: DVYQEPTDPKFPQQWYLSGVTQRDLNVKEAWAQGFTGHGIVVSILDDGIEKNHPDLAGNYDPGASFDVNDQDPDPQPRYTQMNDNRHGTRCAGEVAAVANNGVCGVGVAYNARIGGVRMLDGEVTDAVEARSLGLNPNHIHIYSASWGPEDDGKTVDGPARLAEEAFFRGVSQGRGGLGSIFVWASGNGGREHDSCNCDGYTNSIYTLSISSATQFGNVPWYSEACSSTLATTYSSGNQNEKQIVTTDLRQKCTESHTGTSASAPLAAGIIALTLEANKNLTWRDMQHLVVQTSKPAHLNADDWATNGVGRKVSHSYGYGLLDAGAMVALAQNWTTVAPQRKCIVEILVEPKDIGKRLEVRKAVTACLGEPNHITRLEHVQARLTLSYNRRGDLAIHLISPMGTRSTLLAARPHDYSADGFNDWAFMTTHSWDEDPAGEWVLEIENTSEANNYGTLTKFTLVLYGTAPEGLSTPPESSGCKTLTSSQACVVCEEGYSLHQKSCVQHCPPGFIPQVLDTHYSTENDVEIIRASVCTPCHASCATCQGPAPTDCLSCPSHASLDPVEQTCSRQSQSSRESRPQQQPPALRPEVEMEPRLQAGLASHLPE
- condition.label: modification not given
outcome.measure: Ki (µM)
Give just the numeric value; µM need not be written.

Look up Ki of Ac-HHKRRR-NH2 [Ac-HHKRRR-NH2] and report it.
13.2
